For each record, write down the corresponding Ratio IC50.
Organism: Homo sapiens
Experiment: Selectivity index, ratio of IC50 for BRD4 BD1 (unknown origin) to IC50 of BRD4 BD2 (unknown origin)
Answers are plain numbers.

Guide cases for Ratio IC50, answers given:
>  <structure_notation>
CCS(=O)(=O)Nc1ccc(Oc2ccc(F)cc2F)c(-c2cn(C)c(=O)c3cc(-c4ccc(OCCO)cc4)oc23)c1

>  <Ratio IC50>
0.9

$$$$
>  <structure_notation>
CCS(=O)(=O)Nc1ccc(Oc2c(F)cc(F)cc2F)c(-c2cn(C)c(=O)c3cc(-c4cc(C)c(OCCO)c(C)c4)oc23)c1

>  <Ratio IC50>
0.88

$$$$
>  <structure_notation>
CCS(=O)(=O)Nc1ccc(Oc2ccc(F)cc2F)c(-c2cn(C)c(=O)c3cc(-c4cc(C)cc(C)c4)oc23)c1

>  <Ratio IC50>
1.65

$$$$
>  <structure_notation>
CCS(=O)(=O)Nc1ccc(Oc2ccc(F)cc2F)c(-c2cn(C)c(=O)c3cc(-c4cnc(C)[nH]4)oc23)c1

>  <Ratio IC50>
0.7

$$$$

Give Ratio IC50 for all compounds that follow.
1. Cc1cc(-c2cc3c(=O)n(C)cc(-c4cc(C(C)(C)O)ccc4Oc4ccc(F)cc4F)c3o2)cc(C)c1OCCO
2. CCc1cccc(C)c1Oc1ccc(NS(=O)(=O)CC)cc1-c1cn(C)c(=O)c2cc(-c3cc(C)c(OCCO)c(C)c3)oc12

Result:
[3.5, 7.14]
